System: C. albicans ATCC 24433
test: Antifungal susceptibility, broth dilution MIC (CLSI M27-A2)
Assay type: cell-based
testSettings: Candida albicans, ATCC24433; C. albicans ATCC 24433; broth dilution, RPMI 1640 with MOPS, 48 hours; read-out: Activity against organisms (MIC50) Ca01
Each entry below lists one item and its recorded MIC50 value.
Give your result in µg/mL as a bare value.

# compound, MIC50, µg/mL
data = [
    ("O=Cc1ccc(OCc2cn(CC(O)(Cn3cncn3)c3ccc(F)cc3F)nn2)cc1 (stereo not shown)", 0.5),
    ("O=C(/C=C/c1ccc(OCc2cn(CC(O)(Cn3cncn3)c3ccc(F)cc3F)nn2)cc1)c1ccc(F)cc1 (stereo not shown)", 0.06),
]

Req: Hi! What's the reported MIC50 for CC(=O)Nc1ccc(OCc2cn(CC(O)(Cn3cncn3)c3ccc(F)cc3F)nn2)cc1 (stereo not shown) on C. albicans ATCC 24433?
Resp: 32

* * *

Test system: C. albicans ATCC 24433
test: Antifungal susceptibility, broth dilution MIC (CLSI M27-A2)
Format: cell-based
testSettings: Candida albicans, ATCC24433; C. albicans ATCC 24433; broth dilution, RPMI 1640 with MOPS, 48 hours; read-out: Activity against organisms (MIC50) Ca01
Each entry below lists one item and its recorded MIC50 value.
Give your result in µg/mL as a bare value.

Req: Please give the measured MIC50 for this compound: CCCCCN1CCN(c2ccc(C(=O)/C=C/c3ccc(OCc4cn(CC(O)(Cn5cncn5)c5ccc(F)cc5F)nn4)cc3)cc2)CC1 (stereo not shown)
Resp: 0.5

Req: Please give the measured MIC50 for this compound: OC(Cn1cncn1)(Cn1cc(COc2ccccc2)nn1)c1ccc(F)cc1F (stereo not shown)
Resp: 0.25

Req: Please give the measured MIC50 for this compound: OC(Cn1cncn1)(Cn1cncn1)c1ccc(F)cc1F [Fluconazole, reference compound]
Resp: 0.25

Req: Please give the measured MIC50 for this compound: C=C=CCOc1ccc(/C=C/C(=O)/C=C/c2ccc(OCc3cn(CC(O)(Cn4cncn4)c4ccc(F)cc4F)nn3)cc2)cc1 (stereo not shown)
Resp: 0.25

* * *

Each entry below lists one item and its recorded MIC50 value.
System: C. krusei ATCC 6258
test: Antifungal susceptibility, broth dilution MIC (CLSI M27-A2)
Format: cell-based, Candida krusei
testSettings: Pichia kudriavzevii, ATCC6258; C. krusei ATCC 6258; broth dilution, RPMI 1640 with MOPS, 48 hours; read-out: Activity against organisms (MIC50) Ck01
Procedure: The compounds of Formula 1 were tested for antifungal activity against Candida albicans, C. glabrata, C. krusei, C. tropicalis, Cryptococcus neoformans, Aspergillus fumigatus, A. niger and Fusarium proliferatum. […] End points were determined after 48 hours visually and by using spectrophotometer wherever necessary. […]
Give your result in µg/mL as a bare value.

# compound, MIC50, µg/mL
data = [
    ("COc1ccc(/C=C/C(=O)c2ccc(OCc3cn(CC(O)(Cn4cncn4)c4ccc(F)cc4F)nn3)cc2)cc1 (stereo not shown) [Compound 1A-2]", 8),
]

Req: Please give the measured MIC50 for this compound: O=C(/C=C/c1ccc(OCc2cn(CC(O)(Cn3cncn3)c3ccc(F)cc3F)nn2)cc1)c1ccc(F)cc1 (stereo not shown) [Compound 1B-2]
Resp: 4

* * *

System: A. fumigatus ATCC 46645
test: Antifungal susceptibility, broth dilution MIC (CLSI M38-A)
Type: cell-based
testSettings: Aspergillus fumigatus, ATCC46645; A. fumigatus ATCC 46645; broth dilution, RPMI 1640 with MOPS, 48 hours; read-out: Activity against organisms (MIC50) Afm01
propertyLabel: MIC50

Examples with answers:
# molecule, MIC50
rows = [
    ("Cc1ccc(OCc2cn(CC(O)(Cn3cncn3)c3ccc(F)cc3F)nn2)cc1 (stereo not drawn)", "64 µg/mL"),
    ("OCc1cn(CC(O)(Cn2cncn2)c2ccc(F)cc2F)nn1 (stereo not drawn)", "> 128 µg/mL"),
    ("Cc1ccc(/C=C/C(=O)c2ccc(OCc3cn(CC(O)(Cn4cncn4)c4ccc(F)cc4F)nn3)cc2)cc1 (stereo not drawn)", "> 4 µg/mL"),
    ("O=C(/C=C/c1ccccc1)c1ccc(OCc2cn(CC(O)(Cn3cncn3)c3ccc(F)cc3F)nn2)cc1 (stereo not drawn)", "> 8 µg/mL"),
]

Req: Please give the measured MIC50 for this molecule: CC(=O)c1ccc(OCc2cn(CC(O)(Cn3cncn3)c3ccc(F)cc3F)nn2)cc1 (stereo not drawn)
Resp: > 128 µg/mL

Req: Please give the measured MIC50 for this molecule: COc1ccc(/C=C/C(=O)c2ccc(OCc3cn(CC(O)(Cn4cncn4)c4ccc(F)cc4F)nn3)cc2)cc1 (stereo not drawn)
Resp: > 4 µg/mL

* * *

Each entry below lists one item and its recorded MIC50 value.
Test system: C. krusei ATCC 6258
test: Antifungal susceptibility, broth dilution MIC (CLSI M27-A2)
Assay type: cell-based, Candida krusei
testSettings: Pichia kudriavzevii, ATCC6258; C. krusei ATCC 6258; broth dilution, RPMI 1640 with MOPS, 48 hours; read-out: Activity against organisms (MIC50) Ck01
Give your result in µg/mL as a bare value.

# molecule, MIC50 (µg/mL)
records = [
    ("OC(Cn1cncn1)(Cn1cncn1)c1ccc(F)cc1F [Fluconazole, reference compound]", 32),
    ("O=C(/C=C/c1ccc(OCc2cn(CC(O)(Cn3cncn3)c3ccc(F)cc3F)nn2)cc1)c1ccc(OCC(O)(Cn2cncn2)c2ccc(F)cc2F)cc1 (stereo not shown) [Compound 1B-10]", 2),
    ("CCCC/C=C/c1ccc(OCc2cn(CC(O)(Cn3cncn3)c3ccc(F)cc3F)nn2)cc1 (stereo not shown) [Compound 1C-2]", 2),
    ("COc1ccc(CN2CCN(c3ccc(C(=O)/C=C/c4ccc(OCc5cn(CC(O)(Cn6cncn6)c6ccc(F)cc6F)nn5)cc4)cc3)CC2)cc1 (stereo not shown) [Compound 1B-8]", 2),
    ("CC/C=C/c1ccc(OCc2cn(CC(O)(Cn3cncn3)c3ccc(F)cc3F)nn2)cc1 (stereo not shown) [Compound 1C-1]", 2),
]

Req: Please give the measured MIC50 for this molecule: COc1ccc(C(=O)/C=C/c2ccc(OCc3cn(CC(O)(Cn4cncn4)c4ccc(F)cc4F)nn3)cc2)cc1 (stereo not shown) [Compound 1B-1]
Resp: 4

Req: Please give the measured MIC50 for this molecule: O=C(/C=C/c1ccccc1)c1ccc(OCc2cn(CC(O)(Cn3cncn3)c3ccc(F)cc3F)nn2)cc1 (stereo not shown) [Compound 1A-1]
Resp: 4

Req: Please give the measured MIC50 for this molecule: C/C=C/c1ccc(OCc2cn(CC(O)(Cn3cncn3)c3ccc(F)cc3F)nn2)cc1 (stereo not shown) [Compound 1C-4]
Resp: 8

* * *

Test system: C. tropicalis ATCC 750
test: Antifungal susceptibility, broth dilution MIC (CLSI M27-A2)
Assay type: cell-based, Candida tropicalis
testSettings: Candida tropicalis, ATCC750; C. tropicalis ATCC 750; broth dilution, RPMI 1640 with MOPS, 48 hours; read-out: Activity against organisms (MIC50) Ct01
propertyLabel: MIC50 (µg/mL)
Give your result in µg/mL as a bare value.

Req: Please give the measured MIC50 for this compound: CCCCN1CCN(c2ccc(C(=O)/C=C/c3ccc(OCc4cn(CC(O)(Cn5cncn5)c5ccc(F)cc5F)nn4)cc3)cc2)CC1 (centres unmarked) [Compound 1B-6]
Resp: 0.5

Req: Please give the measured MIC50 for this compound: C/C=C/c1ccc(OCc2cn(CC(O)(Cn3cncn3)c3ccc(F)cc3F)nn2)cc1 (centres unmarked) [Compound 1C-4]
Resp: 0.12

* * *

System: A. fumigatus ATCC 46645
test: Antifungal susceptibility, broth dilution MIC (CLSI M38-A)
Type: cell-based
testSettings: Aspergillus fumigatus, ATCC46645; A. fumigatus ATCC 46645; broth dilution, RPMI 1640 with MOPS, 48 hours; read-out: Activity against organisms (MIC50) Afm01
propertyLabel: MIC50

Req: Please give the measured MIC50 for this compound: C#CCOc1ccc(/C=C/C(=O)c2ccc(N3CCN(CCC)CC3)cc2)cc1
Resp: > 4 µg/mL

* * *

Tested on: C. albicans ATCC 24433
test: Antifungal susceptibility, broth dilution MIC (CLSI M27-A2)
Format: cell-based
testSettings: Candida albicans, ATCC24433; C. albicans ATCC 24433; broth dilution, RPMI 1640 with MOPS, 48 hours; read-out: Activity against organisms (MIC50) Ca01
Checkbox rule: MIC50 lower than 0.1 µg/mL = rule met; MIC50 not lower than 0.1 µg/mL = rule not met.

# compound, assaySystem, classLabel
rows = [
    ("CC(=O)c1ccc(OCc2cn(CC(O)(Cn3cncn3)c3ccc(F)cc3F)nn2)cc1 (centres unmarked)", "C. albicans ATCC 24433", "rule not met"),
    ("CC/C=C/c1ccc(OCc2cn(CC(O)(Cn3cncn3)c3ccc(F)cc3F)nn2)cc1 (centres unmarked)", "C. albicans ATCC 24433", "rule met"),
    ("C/C=C/c1ccc(OCc2cn(CC(O)(Cn3cncn3)c3ccc(F)cc3F)nn2)cc1 (centres unmarked)", "C. albicans ATCC 24433", "rule met"),
    ("O=C(/C=C/c1ccc(O)cc1)c1ccc(O)cc1", "C. albicans ATCC 24433", "rule not met"),
    ("Cc1cc(C#N)c(N)c(C#N)c1-c1ccc(OCc2cn(CC(O)(Cn3cncn3)c3ccc(F)cc3F)nn2)cc1 (centres unmarked)", "C. albicans ATCC 24433", "rule not met"),
    ("CCCCN1CCN(c2ccc(C(C)=O)cc2)CC1 [Compound 11A-2]", "C. albicans ATCC 24433", "rule not met"),
    ("O=C(/C=C/c1ccc(OCc2cn(CC(O)(Cn3cncn3)c3ccc(F)cc3F)nn2)cc1)C1CC1 (centres unmarked)", "C. albicans ATCC 24433", "rule not met"),
]

Okay, next one:
Req: State whether 0.1 µg/mL exceeds MIC50 recorded for COc1ccc(/C=C/C(=O)c2ccc(OCc3cn(CC(O)(Cn4cncn4)c4ccc(F)cc4F)nn3)cc2)cc1 (centres unmarked) .
Resp: rule not met
